Quick note: these are MIC numbers for system: E. faecium A491(Amp^R)
Structures can show the parent of a compound that is named as a salt.
State the answer as a number, implicitly in µg/mL.

# count of solved cases: 2
INSERT INTO results (compound, assayed_system, reported_result) VALUES
  ('CC(N)CSCc1cnccc1SC1=C(C(=O)O)N2C(=O)[C@@H](NC(=O)/C(=N\O)c3nc(N)sc3Cl)[C@H]2SC1 (stereo partly drawn) [Cmpd 36, trifluoroacetic acid salt]', 'E. faecium A491(Amp^R)', 8),
  ('NCCSCc1cnccc1SC1=C(C(=O)O)N2C(=O)[C@@H](NC(=O)/C(=N\OCCF)c3nc(N)sc3Cl)[C@H]2SC1.O=C(O)C(F)(F)F', 'E. faecium A491(Amp^R)', 8);

Prompt line: Consider the compound shown here: NCCSCc1cnccc1SC1=C(C(=O)O)N2C(=O)[C@@H](NC(=O)/C(=N\O)c3nc(N)sc3Br)[C@H]2SC1.O=C(O)C(F)(F)F What is its recorded MIC?
Response line: 8

Prompt line: Consider the compound shown here: CC(=N)NCCSCc1cnccc1SC1=C(C(=O)O)N2C(=O)[C@@H](NC(=O)/C(=N\O)c3nc(N)sc3Cl)[C@H]2SC1 [Cmpd 54, trifluoroacetic acid salt] What is its recorded MIC?
Response line: 8

Prompt line: Consider the compound shown here: CNCCNCCSCc1cnccc1SC1=C(C(=O)O)N2C(=O)[C@@H](NC(=O)/C(=N\O)c3nc(N)sc3Cl)[C@H]2SC1 [Cmpd 57, trifluoroacetic acid salt] What is its recorded MIC?
Response line: 16

---

Structures can show the parent of a compound that is named as a salt.
Quick note: these are MIC numbers for system: S. aureus ATCC 29213
State the answer as a number, implicitly in µg/mL.

# count of solved cases: 2
INSERT INTO results (compound, reported_result) VALUES
  ('NCCSCc1cnccc1SC1=C(C(=O)O)N2C(=O)[C@@H](NC(=O)/C(=N\OC3CCCC3)c3csc(N)n3)[C@H]2SC1 [Cmpd 13, trifluoroacetic acid salt]', 2),
  ('NCCSCc1cnccc1SC1=C(C(=O)O)N2C(=O)[C@@H](NC(=O)/C(=N\O)c3csc(N)n3)[C@H]2SC1 [Cmpd 10, trifluoroacetic acid salt]', 0.5);

Prompt line: Consider the compound shown here: NCC#CCc1cnccc1SC1=C(C(=O)O)N2C(=O)[C@@H](NC(=O)/C(=N\O)c3nc(N)sc3Cl)[C@H]2SC1 [Cmpd 48, trifluoroacetic acid salt] What is its recorded MIC?
Response line: 0.5

---

- System: S. aureus strain ATCC 13709 (methicillin-susceptible)
- Procedure Text: Murine model for lethal bacteremic peritonitis
- Assay type: in vivo, female Swiss-Webster mice
- Measurement Context: Staphylococcus aureus, ATCC13709; Dose 1.25 mg/kg, SC, 72 h; read-out: Survivors (converted)
Counter-ions that a name gives are not always drawn.
Flag rule - responders at 1.25 mg/kg less than 50% flags condition met; the remaining entries get condition not met.

Answered cases to consult:
INSERT INTO assay_data (molecule, assayed_system, class_label) VALUES
  ('CNCCNCCSCc1nnsc1SC1=C(C(=O)O)N2C(=O)[C@@H](NC(=O)/C(=N\OCCF)c3nc(N)sc3Cl)[C@H]2SC1.O=C(O)C(F)(F)F [Cmpd 28, trifluoroacetic acid salt]', 'S. aureus strain ATCC 13709 (methicillin-susceptible)', 'condition met'),
  ('Nc1nc(/C(=N/O)C(=O)N[C@@H]2C(=O)N3C(C(=O)O)=C(Sc4ccncc4CSC[C@H](N)CO)CS[C@H]23)c(Cl)s1 [Cmpd 65, trifluoroacetic acid salt]', 'S. aureus strain ATCC 13709 (methicillin-susceptible)', 'condition met'),
  ('NCCSc1cnccc1SC1=C(C(=O)O)N2C(=O)[C@@H](NC(=O)/C(=N\O)c3nc(N)sc3Cl)[C@H]2SC1 [Cmpd 30, trifluoroacetic acid salt]', 'S. aureus strain ATCC 13709 (methicillin-susceptible)', 'condition met'),
  ('NC(=O)CSCc1cnccc1SC1=C(C(=O)O)N2C(=O)[C@@H](NC(=O)/C(=N\O)c3nc(N)sc3Cl)[C@H]2SC1', 'S. aureus strain ATCC 13709 (methicillin-susceptible)', 'condition not met'),
  ('CN(C)C(=O)[C@@H](N)CSCc1cnccc1SC1=C(C(=O)O)N2C(=O)[C@@H](NC(=O)/C(=N\O)c3nc(N)sc3Cl)[C@H]2SC1 [Cmpd 58, trifluoroacetic acid salt]', 'S. aureus strain ATCC 13709 (methicillin-susceptible)', 'condition met');

Prompt line: Hello, I'm reviewing records and need to know if responders at 1.25 mg/kg of CNCCSCc1cnccc1SC1=C(C(=O)O)N2C(=O)[C@@H](NC(=O)/C(=N\O)c3csc(N)n3)[C@H]2SC1 [Cmpd 15, trifluoroacetic acid salt] is below 50%. Could you check?
Response line: condition met

Prompt line: Hello, I'm reviewing records and need to know if responders at 1.25 mg/kg of NCCCSCc1cnccc1SC1=C(C(=O)O)N2C(=O)[C@@H](NC(=O)/C(=N\O)c3nc(N)sc3Cl)[C@H]2SC1 [Cmpd 27, trifluoroacetic acid salt] is below 50%. Could you check?
Response line: condition met

Prompt line: Hello, I'm reviewing records and need to know if responders at 1.25 mg/kg of NCCSCc1cnccc1SC1=C(C(=O)O)N2C(=O)[C@@H](NC(=O)/C(=N\O)c3csc(N)n3)[C@H]2SC1 [Cmpd 10, trifluoroacetic acid salt] is below 50%. Could you check?
Response line: condition not met

Prompt line: Hello, I'm reviewing records and need to know if responders at 1.25 mg/kg of N=C(N)NCCSCc1cnccc1SC1=C(C(=O)O)N2C(=O)[C@@H](NC(=O)/C(=N\O)c3csc(N)n3)[C@H]2SC1 [Cmpd 14, trifluoroacetic acid salt] is below 50%. Could you check?
Response line: condition met
